# test method notes: Partition coefficient (logP)
# Assay type: physicochemical
# applied conditions: octanol/water
Below, each entry is listed with its recorded logP.

(Q) Report measured logP; entry is "NC(=O)Cc1ccc(OCc2ccc(Br)cc2)cc1"
(A) 2.97

---
(Q) Identify the reported logP for the following entry. "NC(=O)Cc1ccc(F)cc1"
(A) 0.59

(Q) Retrieve logP measured for "NC(=O)Cc1ccc(Br)cc1" and print it.
(A) 1.31

(Q) Indicate the recorded logP value for this compound: "c1cn[nH]c1"
(A) 0.26

====

# system: Alcohol dehydrogenase (Equus caballus, UniProt P00327+P00328)
# test method notes: Inhibitory activity against horse liver alcohol dehydrogenase (ADH)
Log 1/Ki for assorted molecules
Could you keep your reply to the number by itself?

Some solved cases for reference:
(Q) Tell me Log 1/Ki of "NC(=O)Cc1ccc(OCc2ccc(Br)cc2)cc1" when tested on Alcohol dehydrogenase (Equus caballus, UniProt P00327+P00328).
(A) 5.7

(Q) With Alcohol dehydrogenase (Equus caballus, UniProt P00327+P00328) as the test system, provide measured Log 1/Ki for this molecule: "CCCCCOc1ccc(CC(N)=O)cc1"
(A) 5.92

(Q) Under Alcohol dehydrogenase (Equus caballus, UniProt P00327+P00328): report Log 1/Ki of "NC(=O)C(Br)Br" .
(A) 2.49

(Q) Output reported Log 1/Ki of the molecule CC(C)(C)C(N)=O [PIVALAMIDE] on Alcohol dehydrogenase (Equus caballus, UniProt P00327+P00328).
(A) 2.46

Kindly review the next molecule as well.
(Q) GET Log 1/Ki where system = Alcohol dehydrogenase (Equus caballus, UniProt P00327+P00328) and item = "NC(=O)C(Cl)Cl"
(A) 2.19
